The reported measurements were obtained from ChEMBL document CHEMBL1140523.

# MEASUREMENT_PROTOCOL: Cmax in Sprague-Dawley rat at 1 mg/kg, iv or 3 mg/kg, po
# Assay type: ADME, organism-based
# MEASUREMENT_PARAMETERS: in vivo
READOUT_NAME: Cmax (nM)
Answers are plain numbers, in nM.

Record excerpt, results attached:
- STRUCTURE_STRING: "CC(C)N1C(=O)[C@H](NC(=O)[C@@H](Cc2ccccc2OC(F)(F)F)NC(=O)c2ccccc2)CCc2ccccc21"
  READOUT_NAME: "Cmax"
  MEASURED_RESULT: 150
- STRUCTURE_STRING: "CC(C)N1C(=O)[C@H](NC(=O)[C@@H](Cc2cc(F)ccc2F)NC(=O)c2ccc(F)cc2C(F)(F)F)CCc2cc(Cl)ccc21"
  READOUT_NAME: "Cmax"
  MEASURED_RESULT: 260
- STRUCTURE_STRING: "CC(C)N1C(=O)[C@H](NC(=O)[C@@H](Cc2ccccc2OC(F)(F)F)NC(=O)c2ccc(F)cc2)CCc2ccccc21"
  READOUT_NAME: "Cmax"
  MEASURED_RESULT: 240
- STRUCTURE_STRING: "CC(C)N1C(=O)[C@H](NC(=O)[C@@H](Cc2ccccc2OC(F)(F)F)NC(=O)C(C)(C(F)(F)F)C(F)(F)F)CCc2ccccc21"
  READOUT_NAME: "Cmax"
  MEASURED_RESULT: 330
- STRUCTURE_STRING: "CC(C)N1C(=O)[C@H](NC(=O)[C@@H](Cc2ccccc2OC(F)(F)F)NC(=O)c2ccc(F)cc2C(F)(F)F)CCc2cc(Cl)ccc21"
  READOUT_NAME: "Cmax"
  MEASURED_RESULT: 520

Take each entry in turn and give its Cmax.
1. CC(C)N1C(=O)[C@H](NC(=O)[C@@H](Cc2ccccc2OC(F)(F)F)NC(=O)C(C)(C)C)CCc2ccccc21
2. CC(C)N1C(=O)[C@H](NC(=O)[C@@H](Cc2ccccc2F)NC(=O)c2ccc(F)cc2C(F)(F)F)CCc2cc(Cl)ccc21
3. CC(C)N1C(=O)[C@H](NC(=O)[C@@H](Cc2ccccc2OC(F)(F)F)NC(=O)c2ccccn2)CCc2ccccc21

A)
140
330
550

Take each entry in turn and give its Cmax.
1. CC(C)N1C(=O)[C@H](NC(=O)[C@@H](Cc2c(Cl)cccc2Cl)NC(=O)c2ccc(F)cc2C(F)(F)F)CCc2cc(Cl)ccc21
2. CC(C)N1C(=O)[C@H](NC(=O)[C@@H](Cc2c(F)cccc2F)NC(=O)c2ccc(F)cc2C(F)(F)F)CCc2cc(Cl)ccc21
3. CC(C)N1C(=O)[C@H](NC(=O)[C@@H](Cc2ccccc2OC(F)(F)F)NC(=O)c2ccc(F)cc2C(F)(F)F)CCc2ccccc21

A)
[1470, 740, 430]
